- System: 885724-159-R-J1-PDC KRAS PDC multicell spheroid viability
- Assay comment: Anticancer human tumor 885724-159-R-J1-PDC patient-derived pancreatic adenocarcinoma cell line growth inhibition [KRAS2]; active means viability on the fitted dose curve at most 10% of control; inactive means the rest
- Details: second compound 3.16 µM; first compound 0.316 µM
Outcomes you can answer with include only these: active, inactive

compound="Cn1nccc1Nc1nccc(-c2cc3c(s2)C(C)(C)N(CCN2CCOCC2)C3=O)n1 + C=CC(=O)N1CCN(c2nc(OCC3CCCN3C)nc3c2CCN(c2cccc4cccc(C)c24)C3)CC1CC#N" group_label=inactive

Query: Just curious, what result did COc1cc(Nc2ncc3c(n2)-c2ccc(Cl)cc2C(c2c(F)cccc2OC)=NC3)ccc1C(=O)O + COc1cc2nc(C)nc(NC(C)c3cc(N)cc(C(F)(F)F)c3)c2cc1OC1CCOC1 get here?
Reply: inactive

Query: Just curious, what result did O=C(c1cc(Cc2n[nH]c(=O)c3ccccc23)ccc1F)N1CCN(C(=O)C2CC2)CC1 + C=CC(=O)N1CCN(c2nc(=O)n(-c3c(C)ccnc3C(C)C)c3nc(-c4c(O)cccc4F)c(F)cc23)C(C)C1 get here?
Reply: inactive

====

Exercise: state measured viability, T/C for each of the compounds provided.
- Test system: 885724-159-R-J1-PDC KRAS PDC multicell spheroid viability
- Assay comment: Anticancer human tumor 885724-159-R-J1-PDC cell line growth inhibition [KRAS2];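 further: spheroids exposed to agents for 7 days before readout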
- Details: compound 1 µM; stronger effect = lower value

Worked cases, viability, T/C given:
compound="CC(C)NCC(C(=O)N1CCN(c2ncnc3c2C(C)CC3O)CC1)c1ccc(Cl)cc1 (stereo not given)" measured_attribute="viability, T/C" value_observed="75.9% [middle of 5 runs]"
compound="C=CC(=O)N1CCN(c2nc(=O)n(-c3c(C)ccnc3C(C)C)c3nc(-c4c(O)cccc4F)c(F)cc23)C(C)C1 (stereo not given)" measured_attribute="viability, T/C" value_observed="106% [middle of 15 runs]"
compound=COc1cc2nccc(Oc3ccc(NC(=O)C4(C(=O)Nc5ccc(F)cc5)CC4)cc3)c2cc1OC measured_attribute="viability, T/C" value_observed="102% [middle of 5 runs]"
compound="CC1COCCN1c1cc(-c2ccnn2C)c2ccnc(-c3ccn[nH]3)c2n1 (stereo not given)" measured_attribute="viability, T/C" value_observed="56.6% [middle of 5 runs]"

Next compound, please.
Query: Kindly indicate its recorded viability, T/C. Item: CCNC(=O)CC1N=C(c2ccc(Cl)cc2)c2cc(OC)ccc2-n2c(C)nnc21 (stereo not given)
Reply: 66.7% [middle of 5 runs]

====

Exercise: state measured pIC50 for each of the molecules provided.
- Test system: 885724-159-R-J1-PDC KRAS PDC multicell spheroid viability
- Assay comment: Anticancer human tumor 885724-159-R-J1-PDC cell line growth inhibition [KRAS2];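 further: spheroids exposed to agents for 7 days before readout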
- Details: curve of first compound; second compound 1 µM
One number for each entry, as −log10 of the molar value.

molecule="CC(=O)Nc1cccc(-n2c(=O)n(C3CC3)c(=O)c3c(Nc4ccc(I)cc4F)n(C)c(=O)c(C)c32)c1 + CNCc1ccccc1-c1csc(C(C)Nc2nc(C)nc3cc(OC)c(OC)cc23)c1" measured_attribute=pIC50 value_observed=9.28
molecule="COc1cc2nccc(Oc3ccc(NC(=O)C4(C(=O)Nc5ccc(F)cc5)CC4)cc3)c2cc1OC + CC1OCC2(CCN(c3cnc(Sc4ccnc(N)c4Cl)c(N)n3)CC2)C1N" measured_attribute=pIC50 value_observed=5.51

Next molecule, please.
Query: Kindly indicate its recorded pIC50. Item: CC(C)n1nc(-c2ccc3oc(N)nc3c2)c2c(N)ncnc21 + CC1OCC2(CCN(c3cnc(Sc4ccnc(N)c4Cl)c(N)n3)CC2)C1N
Reply: 7.48
